Tested on: human gastric carcinoma cell line MKN-45
assay: In vitro tumor cell proliferation inhibition (MTT): MKN-45
Assay type: cell-based
condition.parameters: 72 hours

[
  {
    "compound.structure": "O=C(Nc1ccc(Oc2ncnc3[nH]ncc23)cc1)Nc1cc(C(F)(F)F)cc(C(F)(F)F)c1",
    "censor.symbol": "=",
    "IC50 [µM]": 8.29
  },
  {
    "compound.structure": "C[C@H](NC(=O)Nc1ccc(Nc2ncnc3[nH]ncc23)cc1)c1ccccc1",
    "censor.symbol": "<",
    "IC50 [µM]": 50
  },
  {
    "compound.structure": "O=C(Nc1cccc(Oc2ncnc3[nH]ncc23)c1)Nc1cccc(C(F)(F)F)c1",
    "censor.symbol": "<",
    "IC50 [µM]": 50
  },
  {
    "compound.structure": "O=C(Nc1ccc(Oc2ncnc3[nH]ncc23)cc1)Nc1ccc(Cl)c(C(F)(F)F)c1",
    "censor.symbol": "=",
    "IC50 [µM]": 8.23
  },
  {
    "compound.structure": "CC(C)(C)c1cc(NC(=O)Nc2ccc(Oc3ncnc4[nH]ncc34)c(F)c2)no1",
    "censor.symbol": "<",
    "IC50 [µM]": 50
  },
  {
    "compound.structure": "O=C(Nc1ccc(Oc2ncnc3[nH]ncc23)cc1)Nc1ccc(C(F)(F)F)cc1Cl",
    "censor.symbol": "=",
    "IC50 [µM]": 6.68
  },
  {
    "compound.structure": "C[C@H](NC(=O)Nc1ccc(Oc2ncnc3[nH]ncc23)cc1)c1ccccc1",
    "censor.symbol": "<",
    "IC50 [µM]": 50
  },
  {
    "compound.structure": "CC(C)c1cccc(NC(=O)Nc2ccc(Oc3ncnc4[nH]ncc34)c(F)c2)c1",
    "censor.symbol": "<",
    "IC50 [µM]": 50
  },
  {
    "compound.structure": "O=C(Nc1ccc(Sc2ncnc3[nH]ncc23)cc1)Nc1cccc(C(F)(F)F)c1",
    "censor.symbol": "=",
    "IC50 [µM]": 8.71
  },
  {
    "compound.structure": "CC(C)(C)c1cc(NC(=O)Nc2ccc(Oc3ncnc4[nH]ncc34)cc2)n(-c2ccccc2)n1",
    "censor.symbol": "=",
    "IC50 [µM]": 2.84
  },
  {
    "compound.structure": "O=C(Nc1ccc(C(F)(F)F)cc1)Nc1ccc(Oc2ncnc3[nH]ncc23)c(F)c1",
    "censor.symbol": "=",
    "IC50 [µM]": 7.63
  },
  {
    "compound.structure": "O=C(Nc1ccc(Oc2ncnc3[nH]ncc23)c(F)c1)Nc1ccc(Cl)c(C(F)(F)F)c1",
    "censor.symbol": "=",
    "IC50 [µM]": 5.28
  },
  {
    "compound.structure": "O=C(Nc1ccccc1)Nc1ccc(Oc2ncnc3[nH]ncc23)cc1",
    "censor.symbol": "<",
    "IC50 [µM]": 50
  },
  {
    "compound.structure": "C[C@@H](NC(=O)Nc1ccc(Oc2ncnc3[nH]ncc23)cc1)c1ccccc1",
    "censor.symbol": "<",
    "IC50 [µM]": 50
  },
  {
    "compound.structure": "CC(C)(C)c1cc(NC(=O)Nc2ccc(Oc3ncnc4[nH]ncc34)cc2)on1",
    "censor.symbol": "=",
    "IC50 [µM]": 1.3
  }
]
